The following variants are listed with their measured protein stability index values.
B1: ZNF263 (parent)
chain: FAHSSNLLRHQRIHTGERPYKCPE

Variants of: B1
Assay: protein stability index of a GFP-peptide fusion (GPS, HEK-293T) (PSI 1-6); higher = more stable;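 also: lentivirally expressed fusions sorted by FACS into six bins by GFP to DsRed ratio, PSI derived from sequencing read proportions per bin multiplied by bin number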
Conditions: c terminus: a fixed tail appended
Form field (numeric): enter value without unit.

Looking up FAHSMNLLRHQRIHTGERPYKCPE [S5M] , I found its protein stability index recorded as 2.28

Entry FAHSRNLLRHQRIHTGERPYKCPE [S5R] , protein stability index reported as 2.44

Looking up FAHSSNLLRHQRIHTPERPYKCPE [G16P] , I found its protein stability index recorded as 2.37

Entry under test: FAHSSNLLRHVRIHTGERPYKCPE [Q11V] . Its protein stability index was 2.14

Lookup result for FAHSSNLLRHERIHTGERPYKCPE [Q11E] ; measured protein stability index: 2.56

According to the records, this variant FAHSSNLLRHQRIHTAERPYKCPE [G16A] displays protein stability index of 2.37

Looking up FAHSSNLCRHQRIHTGERPYKCPE [L8C] , I see its protein stability index listed as 2.13

Recorded result, FAHSSNLLRHFRIHTGERPYKCPE [Q11F] , protein stability index: 1.48

# protein stability index (variant: FAHSSNLLRHQWIHTGERPYKCPE [R12W] ) is 1.87

Notebook: FAHSSNLLRHQRFHTGERPYKCPE [I13F] , protein stability index read as 2.14

// field: protein stability index; key: FARSSNLLRHQRIHTGERPYKCPE [H3R] ; value = 2.04

Recorded protein stability index (variant FAHSSNLLRHQRIHTGEAPYKCPE [R18A] ): 2.68

The variant FAHSSNLLRHQRIHTGERPYKCPT [E24T] showed protein stability index equal to 1.87

Lab book: protein stability index of FAHSSNLLRHQRIHTMERPYKCPE [G16M] noted as 1.88

The variant listed as TAHSSNLLRHQRIHTGERPYKCPE [F1T] shows protein stability index equal to 3.67

// FAHSSNLLRHQRIHPGERPYKCPE [T15P] : protein stability index value = 1.87

Noted for FAHSSNLLPHQRIHTGERPYKCPE [R9P] : its protein stability index reads 3.19

Item: FAHSSNLLRHQRIHTGERNYKCPE [P19N] | protein stability index: 2.75

Sample FAHSSNRLRHQRIHTGERPYKCPE [L7R] ; protein stability index observed: 2.58

For FAHSSNLLRHQRIHTGERPYKSPE [C22S] the variant record lists protein stability index as 3.48

Field protein stability index (entry FAHSSNLLRHQRIHTGERPKKCPE [Y20K] ) reads 3.43

Origin of values: the supplement of paper PMC10567573
